- systemName: eeAChE (Electrophorus electricus)
- Sequence (O42275 24-633): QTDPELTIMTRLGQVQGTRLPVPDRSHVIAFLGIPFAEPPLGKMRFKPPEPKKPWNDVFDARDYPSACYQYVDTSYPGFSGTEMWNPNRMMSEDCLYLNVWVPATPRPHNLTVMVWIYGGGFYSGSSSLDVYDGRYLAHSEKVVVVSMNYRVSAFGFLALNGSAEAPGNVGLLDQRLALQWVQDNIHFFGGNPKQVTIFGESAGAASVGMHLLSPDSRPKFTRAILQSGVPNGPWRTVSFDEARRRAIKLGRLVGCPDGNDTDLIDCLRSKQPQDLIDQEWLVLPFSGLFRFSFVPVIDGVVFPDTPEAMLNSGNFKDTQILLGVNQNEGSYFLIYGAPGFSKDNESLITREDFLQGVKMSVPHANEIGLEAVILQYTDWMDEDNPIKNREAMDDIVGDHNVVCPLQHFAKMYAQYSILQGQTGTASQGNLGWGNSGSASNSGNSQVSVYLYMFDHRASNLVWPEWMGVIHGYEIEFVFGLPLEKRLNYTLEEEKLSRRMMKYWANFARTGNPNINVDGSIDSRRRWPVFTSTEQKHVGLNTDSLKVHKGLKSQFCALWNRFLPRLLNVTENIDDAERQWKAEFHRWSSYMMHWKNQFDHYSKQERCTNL
- experimentSummary: Cholinesterase inhibition, Ellman's assay
- Format: biochemical, electric eel
readoutLabel: pIC50
The value called pIC50 is obtained by taking minus log10 of the concentration in mol/L.

The examples below pair each entry with its known result.
compound: COc1cc(/C=C/C(=O)Nc2ccc(S(N)(=O)=O)cc2)ccc1OCc1ccccc1
systemName: eeAChE (Electrophorus electricus)
pIC50: 6.08
--
compound: NS(=O)(=O)c1ccc(NC(=O)c2cc(O)c(O)c(O)c2)cc1
systemName: eeAChE (Electrophorus electricus)
pIC50: 5.44
--
compound: COc1cc(/C=C/C(=O)NC(C)C(N)=O)ccc1O (stereo not shown)
systemName: eeAChE (Electrophorus electricus)
pIC50: 4.23

So what's the measured pIC50 for this one? NS(=O)(=O)c1ccc(NC(=O)/C=C/c2ccc(-c3ccccc3)cc2)cc1
6.05

For the compound shown here, CC(NC(=O)/C=C/c1ccc(-c2ccccc2)cc1)C(N)=O (stereo not shown) , give the reported pIC50.
4.87

Would you kindly share the measured pIC50 for O=C(Nc1nc2ccc(O)cc2s1)c1cc(O)c(O)c(O)c1 ?
5.83

Quick one: pIC50 for COc1cc(/C=C/C(=O)Nc2ccc(S(N)(=O)=O)cc2)ccc1O ?
4.97

I have this compound here, COc1cc(/C=C/C(=O)Nc2nc3ccc(O)cc3s2)ccc1O , and I need its recorded pIC50.
4.53

I'd like to know its pIC50. The compound in question is CC(NC(=O)c1cc(O)c(O)c(O)c1)C(N)=O (stereo not shown)
4.31

Requested read-out: pIC50. Entry: O=C(/C=C/c1ccc(-c2ccccc2)cc1)Nc1nc2ccc(O)cc2s1
7.15
